- Tested on: BT-549
- METHOD_SUMMARY: NCI tumour cell line growth inhibition, 48 h
Active and inactive are the calls of the source. Rule as the data show it: active = GI50 up to about 1.1 µM and inactive = higher.
READOUT_KIND: GI50

>  <MOLECULE>
O=C(NNC(=O)c1ccncc1)c1ccncc1

>  <REPORTED_RESULT>
> 100 µM (inactive)

$$$$
>  <MOLECULE>
COC(=O)C1=C(C)N2[C@H](C(=O)O)CS[C@@]2(C)[C@H](C(=O)OC)[C@H]1c1cccc([N+](=O)[O-])c1

>  <REPORTED_RESULT>
> 100 µM (inactive)

$$$$
>  <MOLECULE>
COc1ccc2nc3cc(Cl)ccc3c(Nc3ccc(O)c(CN4CCN(C)CC4)c3)c2c1

>  <REPORTED_RESULT>
20.3 µM (inactive)

$$$$
>  <MOLECULE>
CSc1nc(=O)n(CCC#N)nc1SC

>  <REPORTED_RESULT>
23.5 µM (inactive)

$$$$
>  <MOLECULE>
O=C(NCCN(CCNC(=O)c1cccc(=O)n1O)CCN(CCNC(=O)c1cccc(=O)n1O)CCNC(=O)c1cccc(=O)n1O)c1cccc(=O)n1O

>  <REPORTED_RESULT>
> 100 µM (inactive)

$$$$
>  <MOLECULE>
CCOc1cc2c(cc1O)C=C[C@@H]1[C@@H]2CC[C@]2(C)[C@@H](O)CC[C@@H]12

>  <REPORTED_RESULT>
13.9 µM (inactive)

$$$$
>  <MOLECULE>
COc1ccc(C2CC(C)(O)Oc3cc4c(cc32)OCO4)cc1 (stereo not given)

>  <REPORTED_RESULT>
17.3 µM (inactive)

$$$$
>  <MOLECULE>
O=C(CSCC(=O)N/N=C/c1ccncc1)N/N=C/c1ccncc1

>  <REPORTED_RESULT>
> 100 µM (inactive)

$$$$
>  <MOLECULE>
O=Cc1ccc(-c2ccc(-c3ccc(C=O)s3)o2)s1

>  <REPORTED_RESULT>
77.3 µM (inactive)

$$$$
>  <MOLECULE>
CCOC(=O)/C(C(=O)Nc1cccc(Cl)c1)=C(/N)N1CCCC1

>  <REPORTED_RESULT>
> 100 µM (inactive)

$$$$
